The following molecules are listed with their measured cell viability values.
Test system: HCI13 (cells of an ER-positive luminal breast cancer xenograft)
Experiment: cell viability (% of vehicle); higher = less cytotoxic
Conditions: 10 µM; 72 h

Per the reported HCI13 data, CCC(C)C(=O)OC1CCC=C2C=CC(C)C(CCC3CC(O)CC(=O)O3)C21 (configuration not stated) [Mevastatin] has cell viability of 92.7

###

Tested on: HCI03 (cells of an ER-positive luminal breast cancer xenograft)
Experiment: cell viability (% of vehicle); higher = less cytotoxic
Settings: 10 µM; 72 h
As shown below, each of these compounds has a reported cell viability value.
Write no unit; give the number alone.

// worked examples, cell viability included
NS(=O)(=O)c1cc2c(cc1Cl)NCNS2(=O)=O [Hydrochlorothiazide] = 106
CO[C@H]1/C=C/O[C@@]2(C)Oc3c(C)c(O)c4c(c3C2=O)C(=O)/C(=C/NN2CCN(C)CC2)C(=C4O)NC(=O)/C(C)=C/C=C/[C@H](C)[C@H](O)[C@@H](C)[C@@H](O)[C@@H](C)[C@H](OC(C)=O)[C@@H]1C = 133

Now let's try a different one.
For Cc1ccc(Cl)c(Nc2ccccc2C(=O)[O-])c1Cl.[Na+] [Meclofenamate Sodium] the compound record lists cell viability as 158

###

Test system: WHIM2 (cells of a triple-negative basal-like breast cancer xenograft)
Experiment: cell viability of combination (% of vehicle); higher = less cytotoxic
Conditions: 1 µM; 72 h; partner dose: 10 nM
quantityMeasured: cell viability of combination
Form rule: numeric answer, no unit written next to it.

Clc1ccc(COC(Cn2ccnc2)c2ccc(Cl)cc2Cl)c(Cl)c1.O=[N+]([O-])O (configuration not stated) [Miconazole Nitrate] + CN(C)C/C=C/C(=O)Nc1cc2c(Nc3ccc(F)c(Cl)c3)ncnc2cc1O[C@H]1CCOC1 = 52.2

Attention now turns to another entry.
// cell viability of combination value for O=C(c1ccc(F)c(F)c1Nc1ccc(I)cc1F)N1CC(O)(C2CCCCN2)C1 (configuration not stated) [Cobimetinib] + CN(C)C/C=C/C(=O)Nc1cc2c(Nc3ccc(F)c(Cl)c3)ncnc2cc1O[C@H]1CCOC1 : 27

###

Test system: HCI03
Test: cell viability (% of vehicle); higher = less cytotoxic
Conditions: 10 µM; 72 h
The following molecules are shown together with reported cell viability values.

Guide cases for cell viability, answers given:
CC(C)(C)C(=O)C(Oc1ccc(Cl)cc1)n1ccnc1 (stereo not drawn) = 115
Cc1cccc(-c2nn3c(c2-c2ccnc4ccc(C(N)=O)cc24)CCC3)n1 = 90.1
CC(CCC(=O)O)C1CCC2C3CCC4CC(O)CCC4(C)C3CCC12C (stereo not drawn) = 132

For Cl.O=C1CN2Cc3c(ccc(Cl)c3Cl)NC2=N1 [Anagrelide HCl] on HCI03, measured cell viability was 140

# CCC1OC(=O)C(C)C(OC2CC(C)(OC)C(O)C(C)O2)C(C)C(OC2OC(C)CC(N(C)C)C2O)C(C)(O)CC(C)C(=O)C(C)C(O)C1(C)O (stereo not drawn) with HCI03: cell viability is 101

Per the reported HCI03 data, "S=c1nc[nH]c2nc[nH]c12" has cell viability of 104

Param item: CCCC(=O)Nc1ccc(OCC(O)CNC(C)C)c(C(C)=O)c1.Cl (stereo not drawn) [Acebutolol HCl] ; param system: HCI03; output cell viability: 123

Field cell viability (system: HCI03) for entry CC(=O)Oc1cc2c(s1)CCN(C(C(=O)C1CC1)c1ccccc1F)C2 (stereo not drawn) = 164
